A short record of IC50 observed with catalytic domain of human Bub1 (amino acids 704-1085) (Homo sapiens) follows.
Sequence (O43683 704-1085): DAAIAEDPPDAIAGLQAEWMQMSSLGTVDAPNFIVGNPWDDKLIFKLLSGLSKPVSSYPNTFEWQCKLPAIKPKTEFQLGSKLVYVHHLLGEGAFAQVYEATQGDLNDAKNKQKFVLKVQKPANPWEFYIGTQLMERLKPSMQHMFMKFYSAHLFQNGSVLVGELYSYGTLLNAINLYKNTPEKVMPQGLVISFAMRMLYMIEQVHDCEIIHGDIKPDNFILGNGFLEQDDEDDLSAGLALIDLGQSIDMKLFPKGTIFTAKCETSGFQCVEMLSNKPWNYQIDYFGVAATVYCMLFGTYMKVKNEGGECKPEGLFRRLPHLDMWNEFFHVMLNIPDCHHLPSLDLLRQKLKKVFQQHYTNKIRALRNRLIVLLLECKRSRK

molecule	result
Cc1nsc(Nc2cc(C#N)ccn2)c1C(=O)Nc1ccc(OC2CCCN(C(=O)OC(C)(C)C)C2)nc1 (stereo not shown)	≥ 20 µM

Asked: Consider the molecule Cc1nsc(Nc2cnc(C(F)(F)F)cn2)c1C(=O)Nc1ccc(N2CCN(CCC(F)(F)F)CC2)cn1 and give its recorded IC50.
Given back: > 20 µM

Asked: Consider the molecule Cc1nsc(Nc2cncc(C(F)(F)F)n2)c1C(=O)Nc1ccc(OC2CCN(CC(F)(F)F)CC2)nc1 and give its recorded IC50.
Given back: ≥ 20 µM

Asked: Consider the molecule Cc1nsc(Nc2cnc(C(F)(F)F)cn2)c1C(=O)Nc1ccc(C(=O)NC2CN(CC(F)(F)F)C2)cc1 and give its recorded IC50.
Given back: > 20 µM

Asked: Consider the molecule Cc1nsc(Nc2cnc3ccccc3n2)c1C(=O)Nc1ccc(OCCCNC(=O)OC(C)(C)C)nc1 and give its recorded IC50.
Given back: ≥ 20 µM

Asked: Consider the molecule Cc1nsc(Nc2cnc(C(F)(F)F)cn2)c1C(=O)Nc1ccc(O[C@@H]2CCN(CCC(F)(F)F)C2)nc1 and give its recorded IC50.
Given back: > 20 µM

Asked: Consider the molecule Cc1nsc(Nc2cnc(C(F)(F)F)cn2)c1C(=O)Nc1ccc(OCCCN(C)CCF)nc1 and give its recorded IC50.
Given back: 19 µM

Asked: Consider the molecule CC(=O)Nc1cc(NC(=O)c2c(C)nsc2Nc2cnc(C(F)(F)F)cn2)ccc1F and give its recorded IC50.
Given back: 13 µM

Asked: Consider the molecule Cc1nsc(Nc2ccc(C#N)cn2)c1C(=O)Nc1ccc(OC2CCCN(C(=O)OC(C)(C)C)C2)nc1 (stereo not shown) and give its recorded IC50.
Given back: ≥ 20 µM

Asked: Consider the molecule Cc1nsc(Nc2cncc(C(F)(F)F)n2)c1C(=O)Nc1ccc(OCCN(C)C(=O)OC(C)(C)C)nc1 and give its recorded IC50.
Given back: > 20 µM

Asked: Consider the molecule Cc1nsc(Nc2ccc(C#N)cn2)c1C(=O)Nc1ccc(OC[C@H]2CCN(CC(F)(F)F)C2)nc1 and give its recorded IC50.
Given back: > 20 µM

Asked: Consider the molecule Cc1nsc(Nc2ccc(C#N)cn2)c1C(=O)Nc1ccc(OC2CCCN(CCF)C2)nc1 (stereo not shown) and give its recorded IC50.
Given back: ≥ 20 µM

Asked: Consider the molecule Cc1nsc(Nc2cncc(C(F)(F)F)n2)c1C(=O)Nc1ccc(OCCNC(=O)OC(C)(C)C)nc1 and give its recorded IC50.
Given back: > 20 µM

Asked: Consider the molecule Cc1nsc(Nc2cncc(C(F)(F)F)n2)c1C(=O)Nc1ccc(OC2CCNCC2)nc1 and give its recorded IC50.
Given back: ≥ 20 µM

Asked: Consider the molecule Cc1nsc(Nc2cncc(C(F)(F)F)n2)c1C(=O)Nc1ccc(OCCO)nc1 and give its recorded IC50.
Given back: > 20 µM

Asked: Consider the molecule Cc1nsc(Nc2cnc(C(F)(F)F)cn2)c1C(=O)Nc1ccc(OCC2CCN(CCC(F)(F)F)CC2)nc1 and give its recorded IC50.
Given back: ≥ 20 µM

The measurements presented in this section are drawn from patent US20170334899A1.
